Sourced from patent US8618153B2

- System: HCV 1b genotype
- protocol: HCV Replicon assay (HCV-neo replicon cells), 1b genotype
- Assay type: cell-based
- statedConditions: Hepatitis C virus; HCV 1b genotype replicon; value given as range class; read-out: 1b EC50 (in μM or range)
Exercise: for every item that follows, state its recorded EC50.

Find the recorded EC50 belonging to COCC[C@H](NC(=O)OC)C(=O)N1CCC[C@H]1c1nc(C#Cc2ccc(C#Cc3c[nH]c([C@@H]4CCCN4C(=O)[C@H](CCOC)NC(=O)OC)n3)cc2)c[nH]1 and report it. < 0.001 µM

Can you look up the measured EC50 of COC(=O)N[C@@H](C)C(=O)N1CCC[C@H]1c1ncc(-c2ccc(-c3ccc(-c4cnc([C@@H]5CCCN5C(=O)[C@H](C)NC(=O)OC)[nH]4)s3)s2)[nH]1 for me? < 0.001 µM

Which EC50 value belongs to COC(=O)N[C@@H](C)C(=O)N1CCC[C@H]1c1ncc(-c2cnc(-c3ncc(-c4cnc([C@@H]5CCCN5C(=O)[C@H](C)NC(=O)OC)[nH]4)s3)s2)[nH]1 ? 0.001 to 0.01 µM

// query EC50 value for entry CN(C)[C@@H](C(=O)N1CCC[C@H]1c1ncc(-c2ncc(-c3cnc(-c4cnc([C@@H]5CCCN5C(=O)[C@@H](c5ccccc5)N(C)C)[nH]4)s3)s2)[nH]1)c1ccccc1 < 0.001 µM

Fill in: EC50 of CN(C)[C@@H](C(=O)N1CCC[C@H]1c1ncc(CCc2ccc(-c3cnc([C@@H]4CCCN4C(=O)[C@@H](c4ccccc4)N(C)C)[nH]3)cc2)[nH]1)c1ccccc1 is ___ 0.001 to 0.01 µM
